ΔTm Run 1 reference
target_desc: LmxCLK1 (Leishmania mexicana, UniProt E9AMP2)
Sequence (E9AMP2 1-422): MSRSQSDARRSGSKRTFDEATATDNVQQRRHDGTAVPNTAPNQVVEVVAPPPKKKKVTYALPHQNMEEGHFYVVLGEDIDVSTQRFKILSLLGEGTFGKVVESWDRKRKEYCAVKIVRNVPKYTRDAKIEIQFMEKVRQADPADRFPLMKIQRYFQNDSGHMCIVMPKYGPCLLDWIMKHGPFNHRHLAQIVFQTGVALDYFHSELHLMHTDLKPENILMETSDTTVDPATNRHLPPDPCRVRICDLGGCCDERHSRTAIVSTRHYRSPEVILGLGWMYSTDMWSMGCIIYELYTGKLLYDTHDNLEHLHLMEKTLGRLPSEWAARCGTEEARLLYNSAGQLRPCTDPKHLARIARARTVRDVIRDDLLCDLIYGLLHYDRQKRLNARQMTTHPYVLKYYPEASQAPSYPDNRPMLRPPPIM
measurement_description: biochemical
Type: binding
recorded_conditions: DSF, 10 µM compound, 2 µM LmxCLK1, Run 1
Answer in °C, number only, no unit symbol.

# molecule, target_desc, metric, val
data = [
    ("C[C@@H](N)[C@H]1CC[C@H](C(=O)Nc2ccncc2)CC1.Cl.Cl [Y-27632 2HCl]", "LmxCLK1 (Leishmania mexicana, UniProt E9AMP2)", "ΔTm Run 1", 0.1),
]

**Q:** Given the entry COc1ccc2c(Oc3ccc(NC(=O)c4c(C)n(CC(C)(C)O)n(-c5ccccc5)c4=O)nc3)ccnc2c1 , report its measured ΔTm Run 1.
**A:** 0.9

**Q:** Then this molecule: Cc1cnc(-c2cnc(NCCNc3ccc(C#N)cn3)nc2-c2ccc(Cl)cc2Cl)[nH]1.Cl [CHIR-99021 (CT99021) HCl]
**A:** 0.0

**Q:** Then this molecule: Cc1cnc(Nc2ccc(N3CCN(C)CC3)cc2)nc1Nc1cccc(S(=O)(=O)NC(C)(C)C)c1
**A:** 0.2

**Q:** Then this molecule: CNC(=O)c1cc(Oc2ccc(NC(=O)Nc3ccc(Cl)c(C(F)(F)F)c3)c(F)c2)ccn1
**A:** 0.1

**Q:** Then this molecule: CC(C)(C#N)c1ccc(N2C(=O)OCc3cnc4ccc(-c5cnc6ccccc6c5)cc4c32)cc1
**A:** 0.3

**Q:** Then this molecule: Cc1cc(C(C)Nc2ccccc2)c2nc(N3CCOCC3)cc(=O)n2c1 (centres unmarked)
**A:** 0.5

**Q:** Then this molecule: COc1ccc(S(=O)(=O)N(CCO)c2ccccc2CN(C)C/C=C/c2ccc(Cl)cc2)cc1.O=P(O)(O)O [KN-93 Phosphate]
**A:** 0.1
